procedureSummary: qHTS assay to identify small molecule HDAC inhibitors (AID 1259364);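 note: wild-type HCT-116 cells with endogenous class I/II HDAC activity; nearly all actives have a fitted effect of over 45% in size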
conditionsUsed: HCT-116 HDAC-Glo I/II luminescence, 2 h; series mostly up to 92.4 µM
Records with an inconclusive call do not appear. The source made the active and inactive calls. Calls come from the whole dose curve; as a rule, active = well fitted inhibition curve with a large enough effect in the repeat runs; inconclusive = weak or mixed curves; inactive = flat fitted curve, though single readings scatter.
A correct response names exactly one class from true = active, false = inactive

Answered cases to consult:
>  <compound>
C=CC(=O)OCCCCCC

>  <categoryLabel>
false

$$$$
>  <compound>
CCO[Si](C)(OCC)OCC

>  <categoryLabel>
false

$$$$
>  <compound>
CC(C)COC(=O)C(C)C

>  <categoryLabel>
false

$$$$

How was CCc1cc(S(=O)(=O)O)c2cc(C(C)C)cccc1-2 classified in this test?
false

How was C=CC(=O)N1CCOCC1 classified in this test?
false

Given CCC(=O)/C=C/c1ccc(OC)cc1 , state the outcome it received in this test.
true

# lookup: test call for CCCC=O
false

Hello, I am checking results. What call was entered for CN(C)CCOC(c1ccc(Cl)cc1)c1ccccn1 (stereo not drawn) ?
false

----------
procedureSummary: qHTS assay to identify small molecule agonists of the retinoic acid receptor (RAR) signaling pathway (AID 1159553)
conditionsUsed: C3RL4 RARE luciferase reporter, agonist, 6 h; series mostly up to 73.3 µM
Inconclusive results are not listed. Activity calls are given as the source filed them. Calls follow the shape of the dose curve; as a rule, active = well fitted activation curve with a large enough effect in the repeat runs; inconclusive = weak or mixed curves, or effect the other way; inactive = no such curve, though single readings can be large or run the other way.
Use one of these outcomes when replying: TRUE (active), FALSE (inactive)

Examples with answers:
>  <compound>
Cc1nc(-c2ccc(OCC(C)C)c(C#N)c2)sc1C(=O)O

>  <categoryLabel>
TRUE

$$$$
>  <compound>
CCCCCCCCCCCCI

>  <categoryLabel>
FALSE

$$$$
>  <compound>
C[C@H]1O[C@@H](n2cc(F)c(=O)[nH]c2=O)[C@H](O)[C@@H]1O

>  <categoryLabel>
FALSE

$$$$
>  <compound>
Oc1ccc2c(c1)OC[C@@H](N1CCC(O)(c3ccc(F)cc3)CC1)[C@H]2O

>  <categoryLabel>
TRUE

$$$$
>  <compound>
OC[C@H]1O[C@@H]2O[C@H]3[C@H](O)[C@@H](O)[C@@H](O[C@H]4[C@H](O)[C@@H](O)[C@@H](O[C@H]5[C@H](O)[C@@H](O)[C@@H](O[C@H]6[C@H](O)[C@@H](O)[C@@H](O[C@H]7[C@H](O)[C@@H](O)[C@@H](O[C@H]8[C@H](O)[C@@H](O)[C@@H](O[C@H]9[C@H](O)[C@@H](O)[C@@H](O[C@H]1[C@H](O)[C@H]2O)O[C@@H]9CO)O[C@@H]8CO)O[C@@H]7CO)O[C@@H]6CO)O[C@@H]5CO)O[C@@H]4CO)O[C@@H]3CO

>  <categoryLabel>
FALSE

$$$$
>  <compound>
CC(C)COC(=O)C(C)C

>  <categoryLabel>
FALSE

$$$$
>  <compound>
CCCCCCOC(=O)CC(CC(=O)OCCCCCC)(OC(=O)CCC)C(=O)OCCCCCC

>  <categoryLabel>
FALSE

$$$$
>  <compound>
C=C(C)C(=O)OCCC(C)OC(=O)C(=C)C (configuration not stated)

>  <categoryLabel>
FALSE

$$$$

I'd appreciate the recorded outcome for CC(C)(C)C(=O)/C=C/c1ccc(Cl)cc1 from this test.
FALSE

Hi team, can someone confirm the assay call for COc1ccc2cc(C=O)ccc2c1 ?
FALSE

----------
testedSystem: Luciferin 4-monooxygenase (Photinus pyralis) (UniProt P08659)
Sequence (P08659 whole entry, looked up): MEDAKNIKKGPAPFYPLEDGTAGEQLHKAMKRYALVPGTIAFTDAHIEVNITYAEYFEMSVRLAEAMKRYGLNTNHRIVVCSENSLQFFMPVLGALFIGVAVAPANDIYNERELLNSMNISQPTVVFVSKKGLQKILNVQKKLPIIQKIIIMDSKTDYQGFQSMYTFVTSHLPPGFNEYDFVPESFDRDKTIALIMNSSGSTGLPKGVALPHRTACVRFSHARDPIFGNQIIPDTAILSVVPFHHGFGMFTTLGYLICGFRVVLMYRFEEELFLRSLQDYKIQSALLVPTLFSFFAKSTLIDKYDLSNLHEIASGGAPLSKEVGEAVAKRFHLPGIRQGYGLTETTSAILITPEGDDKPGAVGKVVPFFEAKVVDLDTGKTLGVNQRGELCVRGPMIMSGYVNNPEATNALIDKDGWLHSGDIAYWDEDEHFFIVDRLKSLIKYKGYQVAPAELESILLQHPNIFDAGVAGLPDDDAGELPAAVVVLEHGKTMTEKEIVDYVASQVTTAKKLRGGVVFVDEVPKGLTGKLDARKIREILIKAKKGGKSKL
procedureSummary: qHTS assay to identify small molecule inhibitors of firefly luciferase (AID 1224835); note: nearly all actives have a fitted effect of over 25% in size
conditionsUsed: purified P. pyralis luciferase, luminescence inhibition; series mostly up to 115 µM
Records with an inconclusive call do not appear. Calls of active or inactive are those of the source. Calls come from the whole dose curve; as a rule, active = well fitted inhibition curve with a large enough effect in the repeat runs; inconclusive = weak or mixed curves; inactive = flat fitted curve, though single readings scatter.
Please state which outcome applies, choosing from t (active), f (inactive)

Solved entries (count: 4):
>  <compound>
O=C(CCOCCOCCOCCOCCC(=O)Nc1c(I)cc(I)c(C(=O)O)c1I)Nc1c(I)cc(I)c(C(=O)O)c1I

>  <categoryLabel>
f

$$$$
>  <compound>
CCCCCCCCN(C)CCCCCCCC

>  <categoryLabel>
f

$$$$
>  <compound>
c1ccc(CCCc2ccccn2)cc1

>  <categoryLabel>
t

$$$$
>  <compound>
NC1CCN(c2cccc(Cl)n2)CC1

>  <categoryLabel>
f

$$$$

Please let me know the test result on file for O=c1[nH]c2ccccc2c(=O)n1CCCl .
f

Call for entry C=CCOCC(O)CS(=O)(=O)O (stereo not drawn) :
f

Status in this test for NC(=O)Nc1nc2ccccc2[nH]1 ?
f

Hi, sorry to bother you, what did the test record for O=C(O)C1CCC1 ?
f

Please indicate how the test categorized COc1cccc(OC)c1 .
f

Hi, sorry to bother you, what did the test record for CNc1ncnc2nc[nH]c12 ?
f

----------
procedureSummary: qHTS assay to identify small molecule antagonists of the androgen receptor (AR) signaling pathway using the MDA cell line - cell viability counter screen (AID 743041; note: nearly all actives have a fitted effect of over 45% in size)
conditionsUsed: MDA-kb2 viability, CellTiter-Fluor, 16 h, cells co-treated with R1881 androgen agonist; series mostly up to 70.3 µM
Results filed as inconclusive are left out. Calls of active or inactive are those of the source. The call rests on the fitted dose curve; in most records, active means well fitted cell-killing curve with a large enough effect in the repeat runs; inconclusive means weak or mixed curves, or effect the other way; inactive means flat fitted curve, though single readings scatter.
metricName: viability change, negative = cytotoxic

Worked cases, viability change, negative = cytotoxic given:
>  <compound>
CNc1ncnc2nc[nH]c12

>  <measuredResult>
inactive

$$$$
>  <compound>
CCN(CC)C(=O)c1ccc(O)c(OC)c1

>  <measuredResult>
inactive

$$$$
>  <compound>
CC(C)=CC(=O)O

>  <measuredResult>
inactive

$$$$
>  <compound>
C1=C\CC/C=C\CC/C=C\CC/1

>  <measuredResult>
inactive

$$$$
>  <compound>
CC(C)COC(=O)C(C)C

>  <measuredResult>
inactive

$$$$

For the 8 molecules below, give their viability change, negative = cytotoxic values.
1. C=C(C)[C@H]1CC=C(C)CC1
2. Cc1ncc(CSSCc2cnc(C)c(O)c2CO)c(CO)c1O
3. COc1ccc(N=[N+]([O-])c2ccc(OC)cc2)cc1
4. NCC[C@H](O)C(=O)N[C@@H]1C[C@H](N)[C@@H](O[C@H]2O[C@H](CN)[C@@H](O)[C@H](O)[C@H]2O)[C@H](O)[C@H]1O[C@H]1O[C@H](CO)[C@@H](O)[C@H](N)[C@H]1O
5. CCCCCCC(=O)OCC
6. CC(C)N1C(=O)c2ccccc2C1=O
7. c1ccc2cnncc2c1
8. COC(=O)CCCCCCCCC(=O)OC

["inactive", "inactive", "inactive", "inactive", "inactive", "inactive", "inactive", "inactive"]

----------
procedureSummary: A CellTox Green Cytotoxicity Assay to monitor cytotoxicity in HEK293 cells - 32 hour (AID 1224881); note: nearly all actives have a fitted effect of over 40% in size
conditionsUsed: CellTox Green fluorescence; series mostly up to 76.8 µM
Inconclusive results are not listed. Active and inactive are the calls of the source. Calls follow the shape of the dose curve; as a rule, active = well fitted activation curve with a large enough effect in the repeat runs; inconclusive = weak or mixed curves; inactive = flat fitted curve, though single readings scatter.
metricName: cytotoxicity increase

Consider the worked cases shown below.
>  <molecule>
CCCCCC[C@@H](CCC)C(=O)O

>  <measuredResult>
inactive

$$$$
>  <molecule>
Nc1cc(N)cc(C(=O)O)c1

>  <measuredResult>
inactive

$$$$
>  <molecule>
C=C[Si](OC)(OC)OC

>  <measuredResult>
inactive

$$$$
>  <molecule>
CCCCC1CCCCC(=O)O1 (stereo not drawn)

>  <measuredResult>
inactive

$$$$
>  <molecule>
CCCC(=O)O[C@]1(C(=O)CCl)[C@@H](C)C[C@H]2[C@@H]3CCC4=CC(=O)C=C[C@]4(C)[C@@]3(F)C(=O)C[C@@]21C

>  <measuredResult>
inactive

$$$$
>  <molecule>
NC(=O)c1c(Cl)cccc1Cl

>  <measuredResult>
inactive

$$$$

The following molecules each have a reported value; give each one's cytotoxicity increase.
1. Cn1cnc2c(=O)[nH]c(N)nc21
2. O=C(O)C(O)[C@H](O)[C@@H](O)[C@H](O)[C@H](O)CO (stereo partly drawn)

["inactive", "inactive"]

Can you give me cytotoxicity increase for all of these, one by one?
1. Oc1cc(O)c2c(c1)O[C@H](c1ccc(O)c(O)c1)[C@H](O)C2
2. CCCCCCCCC=O
3. CCCCCCCCCCCCI
4. Nc1[nH]c(=O)ncc1F
5. CCOC(=O)Nc1ccc2c(c1)N(C(=O)CCN1CCOCC1)c1ccccc1S2
6. Nc1cc(C(Cl)=C(Cl)Cl)c(S(N)(=O)=O)cc1S(N)(=O)=O

1. inactive
2. inactive
3. inactive
4. inactive
5. inactive
6. inactive

I'm hoping you can list cytotoxicity increase for every molecule here, please.
1. CCN(CC)C(=O)c1ccc(O)c(OC)c1
2. CCN1CCCC1CNC(=O)c1cc(S(N)(=O)=O)ccc1OC (stereo not drawn)
3. O=C(O)c1ccccc1-c1ccc(C(F)(F)F)cc1

inactive
inactive
inactive

----------
testedSystem: Cytochrome P450 3A4 (Homo sapiens) (UniProt P08684)
Sequence (P08684 whole entry, looked up): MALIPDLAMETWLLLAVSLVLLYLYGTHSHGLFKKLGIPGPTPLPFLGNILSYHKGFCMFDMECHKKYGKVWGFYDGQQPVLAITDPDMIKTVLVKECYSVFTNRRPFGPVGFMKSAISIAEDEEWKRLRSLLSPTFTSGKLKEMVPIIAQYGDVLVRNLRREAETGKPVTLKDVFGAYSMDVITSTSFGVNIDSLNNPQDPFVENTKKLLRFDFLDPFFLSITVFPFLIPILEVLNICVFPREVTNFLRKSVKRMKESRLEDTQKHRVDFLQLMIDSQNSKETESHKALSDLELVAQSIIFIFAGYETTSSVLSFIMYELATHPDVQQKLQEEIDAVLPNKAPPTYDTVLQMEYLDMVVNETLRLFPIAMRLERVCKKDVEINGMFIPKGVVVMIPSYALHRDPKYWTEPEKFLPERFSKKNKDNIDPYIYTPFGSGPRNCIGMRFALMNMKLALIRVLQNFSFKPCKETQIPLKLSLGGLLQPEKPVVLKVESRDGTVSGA
procedureSummary: Cytochrome P450 Family 3 Subfamily A Member 4 (CYP3A4) small molecule antagonists: luciferase reporter qHTS assay (AID 1671201); note: nearly all actives have a fitted effect of over 50% in size
conditionsUsed: P450-Glo CYP3A4 enzyme, luciferin luminescence, 1 h; series mostly up to 115 µM
Description: National Center for Advancing Translational Sciences [NCATS] U.S. Environmental Protection Agency [EPA] National Institutes of Environmental Health Sciences [NIEHS] National Toxicology Program [NTP] U.S. Food and Drug Administration [FDA] Cytochrome P450 (CYP) enzymes are membrane-bound hemeproteins that play a key role in metabolism of drugs and xenobiotics. […] The luciferin products formed are detected with a luciferin detection reagent, and the amount of light produced is proportional to CYP activity. […]
Inconclusive results are not listed. Calls of active or inactive are those of the source. The call rests on the fitted dose curve; in most records, active means well fitted inhibition curve with a large enough effect in the repeat runs; inconclusive means weak or mixed curves; inactive means no such curve, though single readings can be large or run the other way.
Pick from yes (1) = active, no (0) = inactive when you respond.

>  <compound>
CNC(=O)c1c(I)c(NC(=O)CCCCC(=O)Nc2c(I)c(C(=O)O)c(I)c(C(=O)NC)c2I)c(I)c(C(=O)O)c1I

>  <testedSystem>
Cytochrome P450 3A4 (Homo sapiens) (UniProt P08684)

>  <categoryLabel>
no (0)

$$$$

How was Cn1cnc2c(=O)[nH]c(N)nc21 classified in this test?
no (0)

Per the assay record, what outcome was assigned to CC(C)CCCC(C)NCCC(C)C (stereo unspecified) ?
no (0)
